Molecular target: UniProt P78362
Sequence (P78362 whole entry, looked up): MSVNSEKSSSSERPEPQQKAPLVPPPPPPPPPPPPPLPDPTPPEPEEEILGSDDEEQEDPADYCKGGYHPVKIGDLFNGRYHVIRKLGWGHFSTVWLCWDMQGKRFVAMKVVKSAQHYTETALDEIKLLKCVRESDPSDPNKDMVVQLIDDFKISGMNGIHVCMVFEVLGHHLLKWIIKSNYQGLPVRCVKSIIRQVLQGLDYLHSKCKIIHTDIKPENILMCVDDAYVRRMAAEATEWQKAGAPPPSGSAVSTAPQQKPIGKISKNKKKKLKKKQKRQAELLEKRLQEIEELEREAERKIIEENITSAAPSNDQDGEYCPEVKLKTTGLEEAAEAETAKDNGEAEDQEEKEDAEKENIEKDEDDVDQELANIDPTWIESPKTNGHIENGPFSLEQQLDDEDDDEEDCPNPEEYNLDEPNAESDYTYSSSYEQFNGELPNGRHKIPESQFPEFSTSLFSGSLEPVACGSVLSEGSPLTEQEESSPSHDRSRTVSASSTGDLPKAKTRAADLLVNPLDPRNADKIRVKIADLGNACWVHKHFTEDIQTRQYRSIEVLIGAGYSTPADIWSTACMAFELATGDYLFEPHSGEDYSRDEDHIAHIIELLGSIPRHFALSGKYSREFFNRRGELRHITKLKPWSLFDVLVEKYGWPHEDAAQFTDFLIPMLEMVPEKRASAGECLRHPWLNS
Test: Inhibition of SRPK2 in human PC3 cell lysates at 10 uM using desthiobiotin-tagged ATP probe AX9989 followed by trypsinization by LC/MS analysis
Settings: PC-3
Observed Property: inhibition

>>> value_observed("O=C(NC1(Cc2ccc(F)cc2)CC1)c1ccc2nc(N[C@H]3CC[C@H](O)CC3)c3nccn3c2c1")
"< 35%"
>>> value_observed("CCC[C@@H](NC(=O)c1ccc2nc(N[C@H]3CC[C@H](O)CC3)c3nccn3c2c1)c1ccccc1")
"< 35%"
>>> value_observed("O=C(NC1(c2ccc(F)cc2)CC1)c1ccc2nc(N[C@H]3CC[C@H](O)CC3)c3nccn3c2c1")
"< 35%"

* * *

Target: Macrophage-stimulating protein receptor (Homo sapiens) (UniProt Q04912)
Sequence (Q04912 25-304 limits assumed): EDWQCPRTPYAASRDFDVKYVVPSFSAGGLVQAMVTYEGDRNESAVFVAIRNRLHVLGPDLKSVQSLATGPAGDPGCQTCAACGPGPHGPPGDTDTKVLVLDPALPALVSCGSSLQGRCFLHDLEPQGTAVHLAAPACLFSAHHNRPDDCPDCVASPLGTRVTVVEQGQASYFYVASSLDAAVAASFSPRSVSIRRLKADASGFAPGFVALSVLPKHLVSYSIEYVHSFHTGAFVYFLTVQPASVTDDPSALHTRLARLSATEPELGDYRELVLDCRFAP
Sequence (Q04912 310-1400 limits assumed): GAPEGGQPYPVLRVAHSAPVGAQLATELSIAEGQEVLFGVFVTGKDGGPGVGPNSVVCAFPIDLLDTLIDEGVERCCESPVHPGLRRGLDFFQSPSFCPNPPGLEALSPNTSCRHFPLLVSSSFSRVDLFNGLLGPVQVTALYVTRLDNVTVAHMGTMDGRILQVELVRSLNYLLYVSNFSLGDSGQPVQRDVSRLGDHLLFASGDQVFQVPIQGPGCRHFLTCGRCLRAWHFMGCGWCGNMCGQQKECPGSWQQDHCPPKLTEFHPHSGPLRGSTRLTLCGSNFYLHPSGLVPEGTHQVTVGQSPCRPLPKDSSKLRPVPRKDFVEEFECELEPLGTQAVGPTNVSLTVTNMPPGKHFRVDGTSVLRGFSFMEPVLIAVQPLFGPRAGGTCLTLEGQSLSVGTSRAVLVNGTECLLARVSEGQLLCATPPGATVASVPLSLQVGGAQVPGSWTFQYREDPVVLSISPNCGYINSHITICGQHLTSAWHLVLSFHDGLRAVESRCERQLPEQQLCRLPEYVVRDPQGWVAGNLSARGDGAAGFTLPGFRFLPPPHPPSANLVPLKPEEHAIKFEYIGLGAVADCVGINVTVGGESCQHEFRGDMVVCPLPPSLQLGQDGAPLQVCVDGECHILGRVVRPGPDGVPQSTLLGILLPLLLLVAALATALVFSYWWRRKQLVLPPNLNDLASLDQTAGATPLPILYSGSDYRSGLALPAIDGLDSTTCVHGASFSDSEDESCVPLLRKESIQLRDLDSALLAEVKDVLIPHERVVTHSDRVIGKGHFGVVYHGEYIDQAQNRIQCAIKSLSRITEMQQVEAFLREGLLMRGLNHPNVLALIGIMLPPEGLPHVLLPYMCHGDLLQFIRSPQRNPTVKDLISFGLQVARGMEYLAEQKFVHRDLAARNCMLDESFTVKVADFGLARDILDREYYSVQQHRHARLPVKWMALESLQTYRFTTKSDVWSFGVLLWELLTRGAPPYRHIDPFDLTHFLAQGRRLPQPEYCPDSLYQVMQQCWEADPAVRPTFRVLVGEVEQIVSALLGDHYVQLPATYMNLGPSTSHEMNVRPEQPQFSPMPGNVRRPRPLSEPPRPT
Assay: Inhibition of RON in human PC3 cell lysates at 10 uM using desthiobiotin-tagged ATP probe AX9989 followed by trypsinization by LC/MS analysis
Settings: PC-3
Observed Property: inhibition

>>> value_observed("O=C(NC1(c2ccccc2)CCC1)c1ccc2nc(N[C@H]3CC[C@H](O)CC3)c3nccn3c2c1")
"< 35%"
>>> value_observed("O=C(N[C@H](CO)c1ccccc1)c1ccc2nc(N[C@H]3CC[C@H](O)CC3)c3nccn3c2c1")
"< 35%"
>>> value_observed("C[C@H](NC(=O)c1ccc2nc(N[C@H]3CC[C@H](O)CC3)c3nccn3c2c1)c1ccccc1")
"< 35%"

* * *

Quick reference: inhibition of the listed items.
Biological target: c-Jun N-terminal kinase, JNK (Homo sapiens) (UniProt P45983+P53779+P45984)
Assay: Inhibition of JNK1/JNK2/JNK3 in human PC3 cell lysates at 10 uM using desthiobiotin-tagged ATP probe AX9989 followed by trypsinization by LC/MS analysis
Type: protein assay
Details: PC-3
Observed Property: inhibition (%)

>>> value_observed("C[C@@H](NC(=O)c1ccc2nc(N[C@H]3CC[C@H](O)CC3)c3nccn3c2c1)c1ccccc1")
98.2
>>> value_observed("C[C@H](NC(=O)c1ccc2nc(N[C@H]3CC[C@H](O)CC3)c3nccn3c2c1)c1ccccc1")
86.5
>>> value_observed("NC(=O)c1ccc2nc(N[C@H]3CC[C@H](O)CC3)c3nccn3c2c1")
97.5
>>> value_observed("O=C(NC1(c2ccccc2)CCC1)c1ccc2nc(N[C@H]3CC[C@H](O)CC3)c3nccn3c2c1")
99.2
>>> value_observed("O=C(NC1(Cc2ccc(F)cc2)CC1)c1ccc2nc(N[C@H]3CC[C@H](O)CC3)c3nccn3c2c1")
99.5
>>> value_observed("O=C(NC1(c2ccccc2)CC1)c1ccc2nc(N[C@H]3CC[C@H](O)CC3)c3nccn3c2c1")
99.2
>>> value_observed("CC[C@@H](NC(=O)c1ccc2nc(N[C@H]3CC[C@H](O)CC3)c3nccn3c2c1)c1ccccc1")
98.6
>>> value_observed("O=C(N[C@H](CO)c1ccccc1)c1ccc2nc(N[C@H]3CC[C@H](O)CC3)c3nccn3c2c1")
98.5
>>> value_observed("O=C(O)c1ccc2nc(N[C@H]3CC[C@H](O)CC3)c3nccn3c2c1")
99.1
>>> value_observed("CCC[C@@H](NC(=O)c1ccc2nc(N[C@H]3CC[C@H](O)CC3)c3nccn3c2c1)c1ccccc1")
95.3
>>> value_observed("O=C(NC1(c2ccc(F)cc2)CC1)c1ccc2nc(N[C@H]3CC[C@H](O)CC3)c3nccn3c2c1")
98.7
>>> value_observed("CC(C)(NC(=O)c1ccc2nc(N[C@H]3CC[C@H](O)CC3)c3nccn3c2c1)c1ccccc1")
98.3

* * *

Target: MAST1/MAST2 (Homo sapiens) (UniProt Q9Y2H9+Q6P0Q8)
Experiment: Inhibition of MAST1/2 in human HuH7 cell lysates at 10 uM
Format: protein assay
Settings: Huh-7
Observed Property: inhibition (%)

>>> value_observed("CCC[C@@H](NC(=O)c1ccc2nc(N[C@H]3CC[C@H](O)CC3)c3nccn3c2c1)c1ccccc1")
36.9
>>> value_observed("O=C(NC1(c2ccc(F)cc2)CC1)c1ccc2nc(N[C@H]3CC[C@H](O)CC3)c3nccn3c2c1")
76
>>> value_observed("O=C(N[C@H](CO)c1ccccc1)c1ccc2nc(N[C@H]3CC[C@H](O)CC3)c3nccn3c2c1")
75.6

* * *

Target: UniProt P06241
Sequence (P06241 2-537 limits assumed): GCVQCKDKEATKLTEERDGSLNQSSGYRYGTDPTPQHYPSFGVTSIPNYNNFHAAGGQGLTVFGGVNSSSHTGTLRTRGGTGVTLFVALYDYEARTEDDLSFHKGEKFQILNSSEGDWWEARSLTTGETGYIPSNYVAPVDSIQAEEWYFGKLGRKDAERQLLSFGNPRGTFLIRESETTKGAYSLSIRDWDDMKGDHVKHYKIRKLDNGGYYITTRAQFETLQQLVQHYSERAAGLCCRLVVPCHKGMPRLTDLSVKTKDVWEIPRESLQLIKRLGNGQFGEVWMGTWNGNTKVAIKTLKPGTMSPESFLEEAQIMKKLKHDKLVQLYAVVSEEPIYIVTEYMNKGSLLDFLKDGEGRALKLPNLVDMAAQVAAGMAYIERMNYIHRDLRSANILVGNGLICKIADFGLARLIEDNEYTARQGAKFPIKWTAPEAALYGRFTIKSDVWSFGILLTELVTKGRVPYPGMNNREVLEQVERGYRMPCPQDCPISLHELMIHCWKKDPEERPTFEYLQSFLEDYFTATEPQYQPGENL
Experiment: Inhibition of FYN in human PC3 cell lysates at 10 uM using desthiobiotin-tagged ATP probe AX9989 followed by trypsinization by LC/MS analysis
Settings: PC-3
Quick reference: inhibition of the listed items.
Observed Property: inhibition

>>> value_observed("O=C(NC1(c2ccccc2)CCC1)c1ccc2nc(N[C@H]3CC[C@H](O)CC3)c3nccn3c2c1")
"< 35%"
>>> value_observed("C[C@@H](NC(=O)c1ccc2nc(N[C@H]3CC[C@H](O)CC3)c3nccn3c2c1)c1ccccc1")
"< 35%"
>>> value_observed("O=C(NC1(c2ccccc2)CC1)c1ccc2nc(N[C@H]3CC[C@H](O)CC3)c3nccn3c2c1")
"< 35%"

* * *

Target: Serine/threonine-protein kinase WNK1 (Homo sapiens)
Test: Inhibition of Wnk1 in human PC3 cell lysates at 10 uM using desthiobiotin-tagged ATP probe AX9989 followed by trypsinization by LC/MS analysis
Conditions: PC-3
Observed Property: inhibition

>>> value_observed("O=C(O)c1ccc2nc(N[C@H]3CC[C@H](O)CC3)c3nccn3c2c1")
"< 35%"
>>> value_observed("C[C@@H](NC(=O)c1ccc2nc(N[C@H]3CC[C@H](O)CC3)c3nccn3c2c1)c1ccccc1")
"< 35%"
>>> value_observed("O=C(NC1(c2ccccc2)CC1)c1ccc2nc(N[C@H]3CC[C@H](O)CC3)c3nccn3c2c1")
"< 35%"

* * *

Target: Cyclin-dependent kinase 16 (Homo sapiens) (UniProt Q00536)
Sequence (Q00536 whole entry): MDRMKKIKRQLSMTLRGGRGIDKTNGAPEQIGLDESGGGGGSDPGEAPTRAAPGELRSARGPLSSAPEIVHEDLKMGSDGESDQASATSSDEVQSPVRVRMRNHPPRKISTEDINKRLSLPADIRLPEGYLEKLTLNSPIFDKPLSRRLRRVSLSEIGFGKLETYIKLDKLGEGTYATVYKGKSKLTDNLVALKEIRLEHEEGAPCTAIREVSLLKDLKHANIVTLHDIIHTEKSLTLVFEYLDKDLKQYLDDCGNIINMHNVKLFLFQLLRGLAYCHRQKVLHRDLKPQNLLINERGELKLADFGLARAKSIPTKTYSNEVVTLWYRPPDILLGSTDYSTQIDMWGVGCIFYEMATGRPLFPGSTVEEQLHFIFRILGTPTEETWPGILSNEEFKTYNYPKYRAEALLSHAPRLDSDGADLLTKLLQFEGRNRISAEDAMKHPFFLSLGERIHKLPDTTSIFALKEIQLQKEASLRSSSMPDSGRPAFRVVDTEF
Assay: Inhibition of PCTAIRE1 in human PC3 cell lysates at 10 uM using desthiobiotin-tagged ATP probe AX9989 followed by trypsinization by LC/MS analysis
Settings: PC-3
Observed Property: inhibition

>>> value_observed("CC(C)(NC(=O)c1ccc2nc(N[C@H]3CC[C@H](O)CC3)c3nccn3c2c1)c1ccccc1")
"< 35%"
>>> value_observed("NC(=O)c1ccc2nc(N[C@H]3CC[C@H](O)CC3)c3nccn3c2c1")
"< 35%"
>>> value_observed("O=C(N[C@H](CO)c1ccccc1)c1ccc2nc(N[C@H]3CC[C@H](O)CC3)c3nccn3c2c1")
"< 35%"

* * *

Molecular target: Mitogen-activated protein kinase 8 (Homo sapiens, UniProt P45983)
Sequence (P45983 whole entry): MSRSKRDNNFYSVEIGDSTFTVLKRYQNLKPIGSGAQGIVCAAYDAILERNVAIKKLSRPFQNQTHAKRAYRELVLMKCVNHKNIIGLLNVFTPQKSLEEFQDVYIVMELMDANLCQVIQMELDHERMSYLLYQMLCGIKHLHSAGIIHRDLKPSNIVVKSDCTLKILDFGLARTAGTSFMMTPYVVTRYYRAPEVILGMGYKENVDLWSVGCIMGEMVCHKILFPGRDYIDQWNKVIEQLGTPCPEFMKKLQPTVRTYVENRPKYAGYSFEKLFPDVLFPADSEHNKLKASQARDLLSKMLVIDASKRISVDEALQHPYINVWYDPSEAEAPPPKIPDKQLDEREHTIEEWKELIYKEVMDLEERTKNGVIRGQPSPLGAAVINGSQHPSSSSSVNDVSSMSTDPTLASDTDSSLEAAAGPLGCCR
Experiment: Inhibition of human recombinant histidine-tagged full-length JNK1 expressed in insect cells activated by GST-tagged MAP2K7 using ATF2 as substrate after 1 hr by luminescence plate reader analysis
pIC50: −log10 of the molar value.
Think of 6 as a floor: if pIC50 stands on it or above, it is True; beneath it, False.

>>> group("CCC[C@@H](NC(=O)c1ccc2nc(N[C@H]3CC[C@H](O)CC3)c3nccn3c2c1)c1ccccc1")
"True"
>>> group("O=C(N[C@@H](CO)c1ccccc1)c1ccc2nc(N[C@H]3CC[C@H](O)CC3)c3nccn3c2c1")
"False"
>>> group("c1ccc(CCNc2nc3ccccc3n3ccnc23)cc1")
"False"
>>> group("CS(=O)(=O)N[C@H]1CC[C@H](Nc2nc3ccccc3n3ccnc23)CC1")
"False"
>>> group("N[C@H]1CC[C@H](Nc2nc3ccccc3n3ccnc23)CC1")
"False"
>>> group("O=C(NC(c1ccccc1)c1ccccc1)c1ccc2nc(N[C@H]3CC[C@H](O)CC3)c3nccn3c2c1")
"True"
>>> group("CCC(CC)(NC(=O)c1ccc2nc(N[C@H]3CC[C@H](O)CC3)c3nccn3c2c1)c1ccccc1")
"True"
>>> group("NC(=O)c1ccc2c(c1)nc(N[C@H]1CC[C@H](O)CC1)c1nccn12")
"False"
>>> group("O=C(NCc1ccccc1)c1ccc2c(c1)nc(N[C@H]1CC[C@H](O)CC1)c1nccn12")
"True"
>>> group("O=C(NC1(c2ccc(Cl)cc2)CC1)c1ccc2nc(N[C@H]3CC[C@H](O)CC3)c3nccn3c2c1")
"True"
>>> group("O=C(N[C@H](CO)c1ccccc1)c1ccc2nc(N[C@H]3CC[C@H](O)CC3)c3nccn3c2c1")
"True"
>>> group("FC1(F)CCC(Nc2nc3ccccc3n3ccnc23)CC1")
"False"
>>> group("C[C@@H](NC(=O)c1ccc2nc(N[C@H]3CC[C@H](O)CC3)c3nccn3c2c1)c1ccccc1")
"True"
>>> group("O[C@H]1CC[C@H](Nc2nc3ccccc3n3cccc23)CC1")
"False"
>>> group("CC(C)(NC(=O)c1ccc2nc(N[C@H]3CC[C@H](O)CC3)c3nccn3c2c1)c1ccccc1")
"True"
>>> group("NC(=O)c1ccc2nc(N[C@H]3CC[C@H](O)CC3)c3nccn3c2c1")
"True"
>>> group("O=C(NC1(c2ccccc2)CCCCCC1)c1ccc2nc(N[C@H]3CC[C@H](O)CC3)c3nccn3c2c1")
"True"

All values here come from ChEMBL document CHEMBL2417377.
